Source listed as paper PMC5700166.

Target Entity: GST-Dm-Relish (Drosophila melanogaster, UniProt Q94527 99-473)
Sequence: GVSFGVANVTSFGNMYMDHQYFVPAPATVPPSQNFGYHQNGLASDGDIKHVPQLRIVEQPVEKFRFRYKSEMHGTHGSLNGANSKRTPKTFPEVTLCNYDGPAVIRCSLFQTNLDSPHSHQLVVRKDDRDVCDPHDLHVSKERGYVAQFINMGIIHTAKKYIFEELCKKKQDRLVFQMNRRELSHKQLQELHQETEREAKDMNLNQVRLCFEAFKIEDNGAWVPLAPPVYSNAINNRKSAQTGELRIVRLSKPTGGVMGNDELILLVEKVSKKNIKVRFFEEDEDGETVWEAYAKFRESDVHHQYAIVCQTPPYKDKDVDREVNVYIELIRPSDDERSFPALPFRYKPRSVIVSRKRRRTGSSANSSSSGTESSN
Measurement Description: protein-binding microarray (PBM); PBM: ~300 nM protein, 6 mM HEPES pH 7.8, 80 mM KCl, 0.5 mM EDTA, 0.5 mM EGTA, 6% glycerol, 35 ng/ul poly-dIdC, 1% milk, 1 h, room temperature; Ap Aiptasia and Nv Nematostella (sea anemones) / Co Capsaspora / Aq Amphimedon (sponge) / Dm Drosophila / Hu human; RHD is the Rel homology domain; high values mean tight binding
Condition Description: dsDNA, one strand shown
Outcome Measure: binding signal (z-score)
Express it in z-score; write the number only.

# returns recorded binding signal (system: GST-Dm-Relish (Drosophila melanogaster, UniProt Q94527 99-473)) for CCGATTAACATCACAAAACCCCCTGATGTTAATCGGGTCTTGATTCGCTTGACGCTGCTG
10.4

One more sequence: CCGATTAACATCAGGAATCTCCATGATGTTAATCGGGTCTTGATTCGCTTGACGCTGCTG
1.01

One more sequence: CCGATTAACATCAATTGCCCCCCTGATGTTAATCGGGTCTTGATTCGCTTGACGCTGCTG
3.87

One more sequence: CCGATTAACATCACGGAGTCCCCTGATGTTAATCGGGTCTTGATTCGCTTGACGCTGCTG
7.32

One more sequence: CCGATTAACATCAGGGACGTCCCTGATGTTAATCGGGTCTTGATTCGCTTGACGCTGCTG
6.25

One more sequence: CCGATTAACATCAGGGGAACACATGATGTTAATCGGGTCTTGATTCGCTTGACGCTGCTG
4.31

One more sequence: CCGATTAACATCAAGGAAAATCCTGATGTTAATCGGGTCTTGATTCGCTTGACGCTGCTG
1.5

One more sequence: CCGATTAACATCAGGGGAACTAATGATGTTAATCGGGTCTTGATTCGCTTGACGCTGCTG
4.37

One more sequence: CCGATTAACATCAGGGGGACAAATGATGTTAATCGGGTCTTGATTCGCTTGACGCTGCTG
2.64

One more sequence: CCGATTAACATCACCGTCCCCCCTGATGTTAATCGGGTCTTGATTCGCTTGACGCTGCTG
4.4

One more sequence: CCGATTAACATCACGGCCTTTCCTGATGTTAATCGGGTCTTGATTCGCTTGACGCTGCTG
1.05

One more sequence: CCGATTAACATCAAAAAAACCCTTGATGTTAATCGGGTCTTGATTCGCTTGACGCTGCTG
6.8

One more sequence: CCGATTAACATCAGGGGGACCCCTGATGTTAATCGGGTCTTGATTCGCTTGACGCTGCTG
9.89

One more sequence: CCGATTAACATCATAAAATTCCATGATGTTAATCGGGTCTTGATTCGCTTGACGCTGCTG
1.32

One more sequence: CCGATTAACATCAAAATTCCCGGTGATGTTAATCGGGTCTTGATTCGCTTGACGCTGCTG
6.54

One more sequence: CCGATTAACATCAGGACTTTACATGATGTTAATCGGGTCTTGATTCGCTTGACGCTGCTG
6.1

One more sequence: CCGATTAACATCAGTGAACCACATGATGTTAATCGGGTCTTGATTCGCTTGACGCTGCTG
5.69

One more sequence: CCGATTAACATCACGGGGATCCCTGATGTTAATCGGGTCTTGATTCGCTTGACGCTGCTG
9.65
